Exercise: for every item that follows, state its recorded hERG current change (%, negative = inhibition) at 10uM.
- Target Desc: human ether-à-go-go-related gene (hERG) potassium channel (human);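 further: peak tail current of the secondary pulse compared with the same well before compound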
- Sequence (Q12809 whole entry, looked up): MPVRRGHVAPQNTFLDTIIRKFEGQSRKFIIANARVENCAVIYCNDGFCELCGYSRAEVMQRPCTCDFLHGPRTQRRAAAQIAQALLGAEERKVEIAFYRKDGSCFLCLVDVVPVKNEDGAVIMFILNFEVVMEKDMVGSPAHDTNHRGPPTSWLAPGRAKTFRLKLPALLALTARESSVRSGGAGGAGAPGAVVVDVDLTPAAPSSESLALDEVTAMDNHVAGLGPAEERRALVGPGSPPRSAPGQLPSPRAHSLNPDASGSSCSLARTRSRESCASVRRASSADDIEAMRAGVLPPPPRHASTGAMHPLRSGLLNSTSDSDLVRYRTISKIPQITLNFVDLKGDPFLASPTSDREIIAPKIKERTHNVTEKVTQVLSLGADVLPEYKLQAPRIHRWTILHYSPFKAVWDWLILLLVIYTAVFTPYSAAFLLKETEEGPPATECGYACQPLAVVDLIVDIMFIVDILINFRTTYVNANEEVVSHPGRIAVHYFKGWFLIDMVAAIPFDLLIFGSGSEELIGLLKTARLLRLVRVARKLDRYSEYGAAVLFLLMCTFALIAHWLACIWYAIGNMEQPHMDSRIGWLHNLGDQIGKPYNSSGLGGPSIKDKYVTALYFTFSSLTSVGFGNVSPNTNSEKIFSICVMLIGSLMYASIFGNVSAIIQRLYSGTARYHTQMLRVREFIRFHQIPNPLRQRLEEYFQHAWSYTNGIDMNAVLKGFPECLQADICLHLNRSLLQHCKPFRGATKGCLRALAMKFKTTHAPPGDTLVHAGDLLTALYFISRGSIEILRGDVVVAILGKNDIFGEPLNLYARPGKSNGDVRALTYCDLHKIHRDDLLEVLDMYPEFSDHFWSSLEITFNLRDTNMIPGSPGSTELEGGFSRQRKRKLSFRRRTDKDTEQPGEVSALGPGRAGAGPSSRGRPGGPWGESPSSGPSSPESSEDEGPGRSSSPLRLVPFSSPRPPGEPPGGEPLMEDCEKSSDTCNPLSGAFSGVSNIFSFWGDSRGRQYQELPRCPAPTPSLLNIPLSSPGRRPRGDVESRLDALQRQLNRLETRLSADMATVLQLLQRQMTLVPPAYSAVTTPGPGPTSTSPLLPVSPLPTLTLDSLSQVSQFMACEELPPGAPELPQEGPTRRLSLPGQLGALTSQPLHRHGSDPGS
- Measurement Protocol: primary screen, population patch clamp on CHO cells stably expressing hERG; higher = less effect of the substance
The campaign covered roughly 310,000 compounds. About 14,000 (4.5%) showed an effect of 50% or more. The effect is printed as a negative number. This excerpt belongs to a sample that is enriched for strong results.
// return numeric value only (unit: %, not printed)

hERG current change (%, negative = inhibition) at 10uM for C[C@@]12CCC3[C@@](CCC4[C@@]3(C)CCC[C@@]4(C)C(=O)N3CCCCC3)(CC1=O)C2 (stereo partly shown) is 7.27

hERG current change (%, negative = inhibition) at 10uM in this record for CC(=O)N(CN1C(=O)C2CC=CCC2C1=O)c1cccc(Cl)c1 (stereo not shown) : -5.31

hERG current change (%, negative = inhibition) at 10uM reported for this compound CCOC(=O)c1ccc2c(c1)nc(COc1ccc3ccccc3c1)n2CC : 3.73

Query CCn1cc(C(=O)NCCCOC)c(=O)c2cc(S(=O)(=O)N(C)C3CCCCC3)ccc21 yields hERG current change (%, negative = inhibition) at 10uM of -23

Quick note, hERG current change (%, negative = inhibition) at 10uM for COC1=CC(=O)C(O)=C(CCCCCCC/C=C/CCCCCCCC2=C(O)C(=O)C=C(OC)C2=O)C1=O landed at -3

The compound listed as CC(=O)N/C(=C/c1ccc(OC(F)F)cc1)C(=O)O shows hERG current change (%, negative = inhibition) at 10uM equal to 3.4

Per the record, CCN(CC)CCSc1nc2ccccc2c(=S)n1-c1ccccc1.Cl has hERG current change (%, negative = inhibition) at 10uM of -51.9

Form: compound = CCN(CC)CCNC(=O)c1cn(CC)c2ccc(S(=O)(=O)N(C)C)cc2c1=O ; hERG current change (%, negative = inhibition) at 10uM = 11.1

What the record says about COc1ccc(S(=O)(=O)N2CCC(n3cnc4ccccc43)CC2)cc1 : hERG current change (%, negative = inhibition) at 10uM is -64.9

Lookup result for O=S(=O)(c1ccc(S(=O)(=O)n2cnc3ccccc32)cc1)N1CCCCCC1 ; measured hERG current change (%, negative = inhibition) at 10uM: 3.15

What the record says about O=C(CNC(=O)c1ccccc1)Oc1cccc(Cl)c1 : hERG current change (%, negative = inhibition) at 10uM is 17.8

The compound listed as COCCCNC(=S)Nc1ccc(OC(F)F)cc1C shows hERG current change (%, negative = inhibition) at 10uM equal to 7.74

Looking up CCSc1nc2ccccc2n1Cc1cccc([N+](=O)[O-])c1 , I found its hERG current change (%, negative = inhibition) at 10uM recorded as -69.7

Entry under test: COC(=O)[C@@H]1C[C@@]2(O)[C@H](O)[C@H](O)[C@H](O)C[C@H]2N1CC1CC1 . Its hERG current change (%, negative = inhibition) at 10uM was 6.98

Field hERG current change (%, negative = inhibition) at 10uM (entry CCN1C(=O)[C@H]2[C@@H](c3ccc(OC)cc3)N3C(=O)CN(CCOC)C(=O)[C@@]3(C)[C@H]2C1=O ) reads -2.75

Reported hERG current change (%, negative = inhibition) at 10uM of CC(=O)N1CCN(c2ccc(NC(=O)c3ccccc3C)cc2)CC1 : -0.597

Kindly note the recorded hERG current change (%, negative = inhibition) at 10uM for COCCNC(=O)C1(C)C=CC2(CCCCC2)N1C(=O)c1ccccc1 (stereo not shown) , which is 5.19

Per the record, COc1cc(/C=N/NS(=O)(=O)c2ccc(C)c([N+](=O)[O-])c2)cc([N+](=O)[O-])c1O has hERG current change (%, negative = inhibition) at 10uM of 18.1

Entry CCCC1=C(C(=O)OCC)C(c2c(C)nn(-c3ccccc3)c2Cl)C(C#N)=C(N)O1 (stereo not shown) ; hERG current change (%, negative = inhibition) at 10uM = -16.1
